Every entry's value here was drawn from patent US20250051338A1.

Listed compounds paired with reported DC50
Molecular target: TYK2 (Homo sapiens, UniProt P29597)
Sequence (P29597 whole entry): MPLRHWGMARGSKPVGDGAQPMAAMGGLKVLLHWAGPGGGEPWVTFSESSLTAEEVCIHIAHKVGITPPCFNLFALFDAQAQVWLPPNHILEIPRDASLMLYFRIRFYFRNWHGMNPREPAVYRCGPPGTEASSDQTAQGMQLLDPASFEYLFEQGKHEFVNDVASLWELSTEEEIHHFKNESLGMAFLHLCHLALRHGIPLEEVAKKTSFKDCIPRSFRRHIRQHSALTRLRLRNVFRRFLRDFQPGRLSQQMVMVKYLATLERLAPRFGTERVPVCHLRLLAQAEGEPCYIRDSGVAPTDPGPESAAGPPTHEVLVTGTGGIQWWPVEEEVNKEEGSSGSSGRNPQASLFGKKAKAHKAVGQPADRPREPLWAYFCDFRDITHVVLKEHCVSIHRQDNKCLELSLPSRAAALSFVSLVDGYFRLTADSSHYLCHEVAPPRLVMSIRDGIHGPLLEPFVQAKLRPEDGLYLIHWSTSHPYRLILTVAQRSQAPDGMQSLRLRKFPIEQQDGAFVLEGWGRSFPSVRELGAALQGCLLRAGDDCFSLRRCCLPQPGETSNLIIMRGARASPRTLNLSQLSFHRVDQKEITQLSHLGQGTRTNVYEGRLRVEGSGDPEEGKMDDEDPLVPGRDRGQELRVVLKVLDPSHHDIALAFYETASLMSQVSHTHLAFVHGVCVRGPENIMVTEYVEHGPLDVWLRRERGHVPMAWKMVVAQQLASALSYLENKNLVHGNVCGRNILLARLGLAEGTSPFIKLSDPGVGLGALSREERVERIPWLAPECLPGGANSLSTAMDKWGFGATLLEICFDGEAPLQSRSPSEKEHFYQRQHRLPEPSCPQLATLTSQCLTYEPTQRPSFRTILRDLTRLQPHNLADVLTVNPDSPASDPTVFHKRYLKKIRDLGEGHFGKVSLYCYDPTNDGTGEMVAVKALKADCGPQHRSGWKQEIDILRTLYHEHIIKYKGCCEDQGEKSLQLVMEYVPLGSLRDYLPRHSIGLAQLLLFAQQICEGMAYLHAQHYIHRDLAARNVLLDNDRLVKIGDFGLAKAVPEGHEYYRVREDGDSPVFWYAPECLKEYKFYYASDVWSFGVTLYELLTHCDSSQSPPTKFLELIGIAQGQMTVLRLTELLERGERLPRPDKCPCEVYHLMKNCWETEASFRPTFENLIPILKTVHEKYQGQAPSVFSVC
Assay: TYK2 degradation MSD assay in OCI-LY10 cells
Type: cell-based
Set-up: endogenous in cells; host or cells: EBV-B cells
Conditions: 4 to 24 hours incubation, read-out: TYK2 MSD DC50 rating in OCI-LY10

Known DC50 results, listed for orientation:
COMPOUND	DC50
CNc1cc(Nc2cccn(-c3cccc(C(=O)NCCCCCCCCc4ccc5c(c4)n(C)c(=O)n5C4CCC(=O)NC4=O)c3)c2=O)nn2c(C(=O)N[C@@H]3C[C@@H]3F)cnc12 (stereo partly shown)	> 100 nM
CNc1cc(-c2cnn(C3CCN(C(=O)NCCCCCCc4ccc5c(c4)n(C)c(=O)n5C4CCC(=O)NC4=O)CC3)c2)nn2c(C(=O)N[C@@H]3C[C@@H]3F)cnc12 (stereo partly shown)	> 100 nM
CNc1cc(Nc2cccn(-c3ccc(C(=O)N4CC5(CCN(c6cccc7c6n(C)c(=O)n7C6CCC(=O)NC6=O)CC5)C4)cn3)c2=O)nn2c(C(=O)N[C@@H]3C[C@@H]3F)cnc12 (stereo partly shown)	< 1 nM

Here is another compound to look at.
Looking for the measured DC50 of CNc1cc(N2CCc3c(-c4ccc(CN5CCN(c6ccc(-c7ccc8c(c7)n(C)c(=O)n8C7CCC(=O)NC7=O)cc6)CC5)cn4)cccc32)nn2c(C(=O)N[C@@H]3C[C@@H]3F)cnc12 (stereo partly shown) , can you help?
1 to 10 nM

* * *

Molecular target: TYK2 (Homo sapiens, UniProt P29597)
Assay: TYK2 degradation MSD assay in OCI-LY10 cells
Format: cell-based
Parameters: endogenous in cells; host or cells: EBV-B cells
Settings: 4 to 24 hours incubation, read-out: TYK2 MSD DC50 rating in OCI-LY10
VALUE KIND: DC50

Known DC50 results, listed for orientation:
COMPOUND	MEASUREMENT TARGET	DC50
CNc1cc(N2CCc3c(CN4CCC(CN5CCN(c6ccc7c(c6)n(C)c(=O)n7C6CCC(=O)NC6=O)CC5)CC4)cccc32)nn2c(C(=O)N[C@@H]3C[C@@H]3F)cnc12 (some centres unmarked)	TYK2 (Homo sapiens, UniProt P29597)	< 1 nM
CNC(=O)c1cnc(Nc2ccc(CN(C)CCCOC3CCN(c4ccc5c(c4)n(C)c(=O)n5C4CCC(=O)NC4=O)CC3)cn2)cc1Nc1cccc(-c2ncc(F)cn2)c1OC (centres unmarked)	TYK2 (Homo sapiens, UniProt P29597)	> 100 nM
CNc1cc(Nc2cccn(-c3ccc(C(=O)N4CCC(OC5CC(c6ccc7c(c6)n(C)c(=O)n7C6CCC(=O)NC6=O)C5)CC4)cn3)c2=O)nn2c(C(=O)N[C@@H]3C[C@@H]3F)cnc12 (some centres unmarked)	TYK2 (Homo sapiens, UniProt P29597)	> 100 nM
CNc1cc(Nc2cccc(-c3ccc(CN4CCN(c5ccc(-c6ccc7c(c6)n(C)c(=O)n7C6CCC(=O)NC6=O)cc5)CC4)cn3)c2F)nn2c(C(=O)N[C@@H]3C[C@@H]3F)cnc12 (some centres unmarked)	TYK2 (Homo sapiens, UniProt P29597)	< 1 nM
Cn1c(=O)n(C2CCC(=O)NC2=O)c2ccc(CCCCCCCCCCCCNc3cc(Nc4cccn(-c5ccccn5)c4=O)nn4c(C(=O)N[C@@H]5C[C@@H]5F)cnc34)cc21 (some centres unmarked)	TYK2 (Homo sapiens, UniProt P29597)	> 100 nM

Hello, I am looking for reported DC50 with TYK2 (Homo sapiens, UniProt P29597) for CNc1cc(Nc2cccn(-c3ccc(C(=O)N4CCC5(CCN(c6cnc(C#Cc7ccc8c(c7)n(C)c(=O)n8C7CCC(=O)NC7=O)nc6)C5=O)C4)cn3)c2=O)nn2c(C(=O)N[C@@H]3C[C@@H]3F)cnc12 (some centres unmarked) . Could you help?
1 to 10 nM

Hello, I am looking for reported DC50 with TYK2 (Homo sapiens, UniProt P29597) for CNC(=O)c1cnc(Nc2ccc(CN(C)C3CCN(c4ccc5c(c4)n(C)c(=O)n5C4CCC(=O)NC4=O)C3)cn2)cc1Nc1cccc(-c2ncc(F)cn2)c1OC (centres unmarked) . Could you help?
> 100 nM

Hello, I am looking for reported DC50 with TYK2 (Homo sapiens, UniProt P29597) for CNc1cc(-c2ccc(-c3ccc(CN4CCC(CN5CCN(c6ccc7c(c6)n(C)c(=O)n7C6CCC(=O)NC6=O)CC5)CC4)cn3)cc2)nn2c(C(=O)N[C@@H]3C[C@@H]3F)cnc12 (some centres unmarked) . Could you help?
1 to 10 nM
